target: Mcl-1/Bim interaction, recombinant human Mcl-1 (171-327) (Homo sapiens); construct: made in house; assay: Cell free Mcl-1: Bim Affinity Assay (Mcl-1 HTRF); assay type: binding; conditions: cell free Mcl-1:Bim TR-FRET, recombinant human Mcl-1 (171-327)
property_label: pIC50
One number for each entry, as −log10 of the molar value.

Past entries and their recorded results:
molecule	pIC50
O=C1NS(=O)(=O)C2CC2CC=CC(O)C2CCC2CN2CC3(CCCc4cc(Cl)ccc43)COc3ccc1cc32 (single isomer, unassigned) [Example 796]	9.35
COCCO[C@H]1/C=C/C[C@H](C)[C@H](c2ccccc2)S(=O)(=O)NC(=O)c2ccc3c(c2)N(C[C@@H]2CC[C@H]21)C[C@@]1(CCCc2cc(Cl)ccc21)CO3 (single isomer, unassigned) [Example 671]	7.70
O=C1NS(=O)(=O)CCC/C=C/C[C@H](O)[C@@H]2CC[C@H]2CN2C[C@@]3(CCCc4cc(Cl)ccc43)COc3ccc1cc32 (single isomer, unassigned)	8.29
C[C@@H]1[C@@H](C)C/C=C/[C@H](OCCN2C[C@@H]3C[C@H]2CO3)[C@@H]2CC[C@H]2CN2C[C@@]3(CCCc4cc(Cl)ccc43)COc3ccc(cc32)C(=O)NS1(=O)=O	9.55
C[C@@H]1[C@@H](C)C/C=C/[C@H](OCCN2CCCC2=O)[C@@H]2CC[C@H]2CN2C[C@@]3(CCCc4cc(Cl)ccc43)COc3ccc(cc32)C(=O)NS1(=O)=O	9.51

// each molecule listed below needs its pIC50
1. COC(=O)CN[C@H]1/C=C/CC[C@@H](C)S(=O)(=O)NC(=O)c2ccc3c(c2)N(C[C@@H]2CC[C@H]21)C[C@@]1(CCCc2cc(Cl)ccc21)CO3
2. O=C1NS(=O)(=O)C/C=C/[C@@H](O)CC[C@@H]2CC[C@H]2CN2C[C@@]3(CCCc4cc(Cl)ccc43)COc3ccc1cc32 (single isomer, unassigned)
3. O=C1NS(=O)(=O)CC/C=C/CC[C@@H]2CC[C@H]2CN2C[C@@]3(CCCc4cc(Cl)ccc43)COc3ccc1cc32
4. CO[C@H]1C/C=C/[C@H](O)[C@@H]2CC[C@H]2CN2C[C@@]3(CCCc4cc(Cl)ccc43)COc3ccc(cc32)C(=O)NS(=O)(=O)[C@@H]1CC1CC1 (single isomer, unassigned) [Example 574]
5. C[C@@H]1[C@@H](C)C/C=C/[C@H](OCCN2CCOC[C@@H]2C)[C@@H]2CC[C@H]2CN2C[C@@]3(CCCc4cc(Cl)ccc43)COc3ccc(cc32)C(=O)NS1(=O)=O

1: 8.82; 2: 8.83; 3: 8.20; 4: 9.41; 5: 9.10

###

biological target: Mcl-1/Bim interaction, recombinant human Mcl-1 (171-327) (Homo sapiens, UniProt Q07820); construct: made in house; test: Cell free Mcl-1: Bim Affinity Assay (Mcl-1 HTRF); assay type: binding; conditions: TR-FRET, 0.1 nM Mcl-1 (171-327), 0.05 nM biotin-Bim (51-76)
Sequence (Q07820 171-327): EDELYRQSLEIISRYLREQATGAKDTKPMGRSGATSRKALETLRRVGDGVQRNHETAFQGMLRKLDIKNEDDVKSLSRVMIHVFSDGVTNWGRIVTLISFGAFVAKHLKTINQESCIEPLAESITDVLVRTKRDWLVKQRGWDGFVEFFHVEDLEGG
property_label: IC50
Hi, when you answer, please include the unit after the number. Thanks!

These recorded examples may help you get a feel for the data.
given_smiles	experimental_target	IC50
COCC[C@@H]1/C=C/[C@@H]2CC[C@H]2CN2C[C@@]3(CCCc4cc(Cl)ccc43)COc3ccc(cc32)C(=O)NS(=O)(=O)[C@H](C)[C@@H](C)C1	Mcl-1/Bim interaction, recombinant human Mcl-1 (171-327) (Homo sapiens, UniProt Q07820)	3.6 nM
CN(C)C(=O)CN1CC/C=C/[C@H](O)[C@@H]2CC[C@H]2CN2C[C@@]3(CCCc4cc(Cl)ccc43)COc3ccc(cc32)C(=O)NS1(=O)=O	Mcl-1/Bim interaction, recombinant human Mcl-1 (171-327) (Homo sapiens, UniProt Q07820)	0.465 nM
CO[C@H]1/C=C/[C@H](CCO)C[C@@H](C)S(=O)(=O)NC(=O)c2ccc3c(c2)N(C[C@@H]2CC[C@H]21)C[C@@]1(CCCc2cc(Cl)ccc21)CO3	Mcl-1/Bim interaction, recombinant human Mcl-1 (171-327) (Homo sapiens, UniProt Q07820)	0.218 nM
COC1CN(C(=O)CO[C@H]2/C=C/C[C@H](C)[C@@H](C)S(=O)(=O)NC(=O)c3ccc4c(c3)N(C[C@@H]3CC[C@H]32)C[C@@]2(CCCc3cc(Cl)ccc32)CO4)C1	Mcl-1/Bim interaction, recombinant human Mcl-1 (171-327) (Homo sapiens, UniProt Q07820)	0.127 nM

Attention now shifts to the item below.
Tell us which IC50 value is on record for `CN(C)CCNC(=O)CO[C@@H]1/C=C/CCCS(=O)(=O)NC(=O)c2ccc3c(c2)N(C[C@@H]2CC[C@H]21)C[C@@]1(CCCc2cc(Cl)ccc21)CO3`
2.96 nM

###

molecular target: Mcl-1/Bim interaction, recombinant human Mcl-1 (171-327) (Homo sapiens); construct: made in house; assay: Cell free Mcl-1: Bim Affinity Assay (Mcl-1 HTRF); assay type: binding; details: TR-FRET, 0.1 nM Mcl-1 (171-327), 0.05 nM biotin-Bim (51-76)
I'd appreciate it if you marked entries met when IC50 is lower than 0.9 nM and not met when it is not.

molecule	experimental_target	class_assignment
O=C1NS(=O)(=O)[C@H]2C[C@H](/C=C/[C@H](O)[C@@H]3CC[C@H]3CN3C[C@@]4(CCCc5cc(Cl)ccc54)COc4ccc1cc43)C2 [Example 102]	Mcl-1/Bim interaction, recombinant human Mcl-1 (171-327) (Homo sapiens)	not met

is_below(IC50, 0.9 nM) for CNC(=O)C(OC)C1C=CC2CCC2CN2CC3(CCCc4cc(Cl)ccc43)COc3ccc(cc32)C(=O)NS(=O)(=O)C(C)C(C)C1 (single isomer, unassigned) [Example 361] ?
met

Determine if CC[C@@H]1CC/C=C/[C@H](OCC(=O)NC(C)C)[C@@H]2CC[C@H]2CN2C[C@@]3(CCCc4cc(Cl)ccc43)COc3ccc(cc32)C(=O)NS1(=O)=O [Example 422] shows IC50 strictly lower than 0.9 nM.
met

Regarding O=C1NS(=O)(=O)CCC/C=C/[C@@H](O)[C@@H]2CC[C@H]2CN2C[C@@]3(CCCc4cc(Cl)ccc43)COc3ccc1cc32 [Example 952] , kindly confirm whether its IC50 is beneath 0.9 nM.
not met

I wonder whether CO[C@H]1/C=C/CC[C@@H](CO)S(=O)(=O)NC(=O)c2ccc3c(c2)N(C[C@@H]2CC[C@H]21)C[C@@]1(CCCc2cc(Cl)ccc21)CO3 (single isomer, unassigned) [Example 446] has IC50 below 0.9 nM. Can you tell?
met

###

target: Mcl-1/Bim interaction, recombinant human Mcl-1 (171-327) (Homo sapiens); construct: made in house; assay: Cell free Mcl-1: Bim Affinity Assay (Mcl-1 HTRF); type: binding; conditions: TR-FRET, 0.1 nM Mcl-1 (171-327), 0.05 nM biotin-Bim (51-76)
Give IC50 for every item shown.
Numbers only, in pM.

Example compounds with recorded IC50:
given_smiles	experimental_target	IC50 (pM)
COCC[C@H]1/C=C/[C@H](OC)[C@@H]2CC[C@H]2CN2C[C@@]3(CCCc4cc(Cl)ccc43)COc3ccc(cc32)C(=O)NS(=O)(=O)[C@H](C)C1	Mcl-1/Bim interaction, recombinant human Mcl-1 (171-327) (Homo sapiens)	732
C[C@@H]1CC/C=C/[C@H](O)[C@@H]2CC[C@H]2CN2C[C@@]3(CCC(F)(F)c4cc(Cl)ccc43)COc3ccc(cc32)C(=O)NS1(=O)=O	Mcl-1/Bim interaction, recombinant human Mcl-1 (171-327) (Homo sapiens)	564

In the following, a different compound is considered.
Hello, please tell me recorded IC50 for this one: `CN1CCCCS(=O)(=O)NC(=O)c2ccc3c(c2)N(C[C@@H]2CC[C@H]2C1=O)C[C@@]1(CCCc2cc(Cl)ccc21)CO3`
20700

###

I'd appreciate it if you could supply IC50 values for the items below.
target: Mcl-1/Bim interaction, recombinant human Mcl-1 (171-327) (Homo sapiens); construct: made in house; experiment: Cell free Mcl-1: Bim Affinity Assay (Mcl-1 HTRF); assay type: binding; details: TR-FRET, 0.1 nM Mcl-1 (171-327), 0.05 nM biotin-Bim (51-76)

Below: 2 compounds and their reported IC50.
compound	experimental_target	IC50
O=C1NS(=O)(=O)[C@@H](CO)CC/C=C\C[C@@H]2CC[C@H]2CN2C[C@@]3(CCCc4cc(Cl)ccc43)COc3ccc1cc32 (single isomer, unassigned)	Mcl-1/Bim interaction, recombinant human Mcl-1 (171-327) (Homo sapiens)	11.5 nM
CO[C@H]1/C=C/CCN(C)S(=O)(=O)NC(=O)c2ccc3c(c2)N(C[C@@H]2CC[C@H]21)C[C@@]1(CCCc2cc(Cl)ccc21)CO3 (single isomer, unassigned)	Mcl-1/Bim interaction, recombinant human Mcl-1 (171-327) (Homo sapiens)	0.629 nM

Hello, I would appreciate it if you could give IC50 for each entry below.
1. CC[C@@H]1CC/C=C\[C@@H](NC(C)=O)[C@@H]2CC[C@H]2CN2C[C@@]3(CCCc4cc(Cl)ccc43)COc3ccc(cc32)C(=O)NS1(=O)=O (single isomer, unassigned)
2. C[C@@H]1CC/C=C/[C@H](OCc2nnn(C)n2)[C@@H]2CC[C@H]2CN2C[C@@]3(CCCc4cc(Cl)ccc43)COc3ccc(cc32)C(=O)NS1(=O)=O
3. C[C@@H]1[C@@H](C)S(=O)(=O)NC(=O)c2ccc3c(c2)N(C[C@@H]2CC[C@H]2[C@@H](OCC(=O)N(C)C)/C=C/[C@@H]1C)C[C@@]1(CCCc2cc(Cl)ccc21)CO3
4. C[C@@H]1[C@@H](C)C/C=C/[C@H](OCC(=O)N2CC(N3CCCC3)C2)[C@@H]2CC[C@H]2CN2C[C@@]3(CCCc4cc(Cl)ccc43)COc3ccc(cc32)C(=O)NS1(=O)=O
5. C[C@@H]1[C@@H](C)C/C=C/[C@H](OCC(=O)N2CC(F)(F)C2)[C@@H]2CC[C@H]2CN2C[C@@]3(CCCc4cc(Cl)ccc43)COc3ccc(cc32)C(=O)NS1(=O)=O
6. CO[C@H]1/C=C/C(CO)C(C)CS(=O)(=O)NC(=O)c2ccc3c(c2)N(C[C@@H]2CC[C@H]21)C[C@@]1(CCCc2cc(Cl)ccc21)CO3 (single isomer, unassigned)

5.48 nM
0.442 nM
0.11 nM
0.0805 nM
0.382 nM
0.448 nM
